protein stability index for assorted variants
B1: ADAMTS4 (parent)
chain: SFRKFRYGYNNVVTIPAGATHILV

- Variants of: B1
- TEST DETAILS: protein stability index of a GFP-peptide fusion (GPS, HEK-293T) (PSI 1-6); higher = more stable;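 further: lentivirally expressed fusions sorted by FACS into six bins by GFP to DsRed ratio, PSI derived from sequencing read proportions per bin multiplied by bin number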
- SETUP CONDITIONS: c terminus: a fixed tail appended

I22K = 2.37

**Q:** Please give the measured protein stability index for this variant: K4V
**A:** 1.97

**Q:** Could you tell me which protein stability index is on file for K4T ?
**A:** 2.68

**Q:** Entry V24F : reported protein stability index = ?
**A:** 3.25

**Q:** Look up protein stability index for this variant: F5R
**A:** 3.02

**Q:** Which measured protein stability index value corresponds to F5K ?
**A:** 1.77

**Q:** Name the recorded protein stability index for R6K .
**A:** 3

**Q:** What value of measured protein stability index is listed for V13P ?
**A:** 2.12

**Q:** Bench note: what protein stability index did F5W show?
**A:** 2.87

**Q:** Would you kindly share the measured protein stability index for V13C ?
**A:** 2.92

**Q:** Quick one: protein stability index of I15K ?
**A:** 2.41

**Q:** Requested read-out: protein stability index. Entry: K4W
**A:** 3.02

**Q:** Which protein stability index reading was recorded for the variant F5V ?
**A:** 3.85

**Q:** Request the reported protein stability index associated with V12C
**A:** 2.95

**Q:** Entry under review: I15Q . Reported protein stability index?
**A:** 1.4

**Q:** Looking for the measured protein stability index of Y9T , can you help?
**A:** 2.05
